Origin of measurements: the nanobody polyreactivity screen of Harvey et al. (2022)

Assay: yeast display, Sf9 membrane polyspecificity reagent, FACS + sequencing; frameworks hold sequencing errors
Readout Type: polyreactivity (PSR sort gate)

Worked cases, answers included:
Macromolecule Sequence	Readout Type	Result Value
QVQLVESGGGLVQAGGSHRLSCSASGSNFRDYAMGWYRQAPGKERELVAAISWSSSRTYYADSVKGRFTISRDNAKNTVYLQMNSLKPEDTAVYYCNKLSIWSYYFGPYGYDYWGQGTQVTVSS	polyreactivity (PSR sort gate)	low polyreactivity
QVQLVESGVGLVQAGGSLRLSCAASGRTSAQYGMGWYRQAPGKERELVATITTSGGRTYYADSVKGRFTISRDTAKNTVYLQMNSLKPEDTAVYYGAAEGWTTPTPTSDDNQWWYDYWGQGTQVTVSS	polyreactivity (PSR sort gate)	high polyreactivity
QVQLVESGGCLVQAGGSLRLSCSASGLTFRYYAMGWYRQAPGKESELVAAITRRGSTYYADSVKGRFTISRDIAKNTVYLQMNSLKPEDSAVYYCATVTGFHSSPLRDLDYWGQGTLVTVSS	polyreactivity (PSR sort gate)	high polyreactivity
QVQLVVSGGGLVQAGGSLRLSCAASGNIFESYGMGGYRQAPGKERELVANINTSCGSTYYADSVKGRFTISRDNAKNTVYLQMNSLKPEDTAVYYCAAEWYPYPWGYGYWGQGTQVTVSS	polyreactivity (PSR sort gate)	low polyreactivity
QVQLVESGGGLVQAGGSVRLSCAASGRIFGYYAMGWYRQAPGKERELVAAINWNVGSTYYADSVKGRFTISRDNAKNTVYLQMNSLKPEDTAVYYCAAVGRYSRLLGKYDYWGQGTQVTVSS	polyreactivity (PSR sort gate)	low polyreactivity

Ask | Name the recorded polyreactivity (PSR sort gate) of the sequence listed here: QVQLVESGGGLVQAGGSLRLSCAASGRTFDLYAMGWDRQAPGKERELVAAITKGGGSTYYADSVKGRFTISRDNAKNTVYLQMNSLKPEDSAVYYCAARKYKRIYRISSGIGYYWGHGTQVTVSS
Reply | high polyreactivity

Ask | Name the recorded polyreactivity (PSR sort gate) of the sequence listed here: QVQLVESGGGLVQAGGSLRLSCAASGSIFYRYAMGWYRQAPGKERELFATITQSGVSTYYADSVKGRFTISRDNAKNTVFLQRISLKPEDTAVYYCAASYYYTIGPYLRKFDWGQGTQVTVSS
Reply | low polyreactivity

Ask | Name the recorded polyreactivity (PSR sort gate) of the sequence listed here: QVKLVESGGGLVQAGGSLRLSCAASGSIFALYAMGWYRQAPGKEREFVARISWGGGRTYYADSVKGRFTISRDNAQNTVYLQMNSLKPEDTAVYYCNAERAGTYSYDYWGQGTQVTVSS
Reply | high polyreactivity
